For each record, write down the corresponding inhibition.
Molecular target: Cyclin-dependent kinase 2 (Homo sapiens);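 note: mean inhibition measured against the CDK2/cyclin E complex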
Details: at 1 µM
One number for each entry, in %.

Use these answered entries as a reference point.
Exercise: Please report the measured inhibition for COc1cccc(COc2cc(-n3cnc4ccccc43)sc2C(N)=O)c1
Solution: -0.85

Exercise: Please report the measured inhibition for CCn1c(-c2nonc2N)nc2c(C#CC(C)(C)O)ncc(OCC3CCNCC3)c21
Solution: 9.55

Exercise: Please report the measured inhibition for CCn1c(-c2nonc2N)nc2c(C#CC(C)(C)O)ncc(OC[C@@H]3CCCN3)c21
Solution: -0.07

Exercise: Please report the measured inhibition for CCn1c(-c2nonc2N)nc2c(C#CC(C)(C)O)nc(O[C@@H](CN)c3ccccc3)cc21
Solution: 4.27

Exercise: Please report the measured inhibition for NS(=O)(=O)c1ccc(-c2ccc3c(NC(=O)C4CC4)n[nH]c3c2)cc1
Solution: 5.85

Now look at this entry.
Exercise: Please report the measured inhibition for Fc1ccc(-c2ncn(C3CCNCC3)c2-c2ccnc(Oc3ccccc3)n2)cc1
Solution: -0.94

* * *

Target: Mitogen-activated protein kinase 12 (Homo sapiens);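 note: values are averaged p38gamma kinase inhibition readings, compounds tested at 1 µM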
Details: at 1 µM
For each record, write down the corresponding inhibition.
Answers are plain numbers, in %.

Use these answered entries as a reference point.
Exercise: Please report the measured inhibition for NS(=O)(=O)c1ccc(N/C=C2\C(=O)Nc3ccc4ncsc4c32)cc1
Solution: 5.04

Exercise: Please report the measured inhibition for COc1cccc(-n2ncc3c(N/N=C/c4ccncc4)ncnc32)c1
Solution: 14.1

# batch size: 3; output inhibition per entry
1. NS(=O)(=O)c1ccc(-c2ccc3c(NC(=O)C4CC4)n[nH]c3c2)cc1
2. CCn1c(-c2nonc2N)nc2c(C#CC(C)(C)O)nc(O[C@@H](CN)c3ccccc3)cc21
3. COc1cc2c(cc1Nc1nc(Nc3ccsc3C(N)=O)c3cc[nH]c3n1)N(C(=O)CN(C)C)CCC2

Solution:
1. 0.58
2. 0.23
3. 3.18

* * *

For each record, write down the corresponding inhibition.
Molecular target: Muscle, skeletal receptor tyrosine-protein kinase (Homo sapiens);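 note: reported value is the mean percent inhibition of MuSK kinase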
Conditions: at 1 µM

Exercise: Give measured inhibition for Nc1nonc1-c1nc2cnccc2n1C1CCCCC1 (Muscle, skeletal receptor tyrosine-protein kinase (Homo sapiens)).
Solution: 3.94%

Exercise: Give measured inhibition for CCn1c(-c2nonc2N)nc2c(C#CC(C)(C)O)nc(O[C@@H](CN)c3ccccc3)cc21 (Muscle, skeletal receptor tyrosine-protein kinase (Homo sapiens)).
Solution: 1.93%

Exercise: Give measured inhibition for CCn1c(-c2nonc2N)nc2c(C#CCN)ncc(OCCCN)c21 (Muscle, skeletal receptor tyrosine-protein kinase (Homo sapiens)).
Solution: 12.2%

# batch size: 3; output inhibition per entry
1. NS(=O)(=O)c1ccc(-c2ccc3c(NC(=O)C4CC4)n[nH]c3c2)cc1
2. Cc1cc(-c2ccco2)cc(C)c1/C=C/c1cncc(-c2nn[nH]n2)c1
3. COc1cccc(COc2cc(-n3cnc4ccccc43)sc2C(N)=O)c1

Solution:
["8.82%", "-4.43%", "-3.86%"]

* * *

Target: Serine/threonine-protein kinase D2 (Homo sapiens) (UniProt Q9BZL6);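 note: reported percent inhibition values are means, part of the GSK PKIS kinase panel screen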
Sequence (Q9BZL6 whole entry): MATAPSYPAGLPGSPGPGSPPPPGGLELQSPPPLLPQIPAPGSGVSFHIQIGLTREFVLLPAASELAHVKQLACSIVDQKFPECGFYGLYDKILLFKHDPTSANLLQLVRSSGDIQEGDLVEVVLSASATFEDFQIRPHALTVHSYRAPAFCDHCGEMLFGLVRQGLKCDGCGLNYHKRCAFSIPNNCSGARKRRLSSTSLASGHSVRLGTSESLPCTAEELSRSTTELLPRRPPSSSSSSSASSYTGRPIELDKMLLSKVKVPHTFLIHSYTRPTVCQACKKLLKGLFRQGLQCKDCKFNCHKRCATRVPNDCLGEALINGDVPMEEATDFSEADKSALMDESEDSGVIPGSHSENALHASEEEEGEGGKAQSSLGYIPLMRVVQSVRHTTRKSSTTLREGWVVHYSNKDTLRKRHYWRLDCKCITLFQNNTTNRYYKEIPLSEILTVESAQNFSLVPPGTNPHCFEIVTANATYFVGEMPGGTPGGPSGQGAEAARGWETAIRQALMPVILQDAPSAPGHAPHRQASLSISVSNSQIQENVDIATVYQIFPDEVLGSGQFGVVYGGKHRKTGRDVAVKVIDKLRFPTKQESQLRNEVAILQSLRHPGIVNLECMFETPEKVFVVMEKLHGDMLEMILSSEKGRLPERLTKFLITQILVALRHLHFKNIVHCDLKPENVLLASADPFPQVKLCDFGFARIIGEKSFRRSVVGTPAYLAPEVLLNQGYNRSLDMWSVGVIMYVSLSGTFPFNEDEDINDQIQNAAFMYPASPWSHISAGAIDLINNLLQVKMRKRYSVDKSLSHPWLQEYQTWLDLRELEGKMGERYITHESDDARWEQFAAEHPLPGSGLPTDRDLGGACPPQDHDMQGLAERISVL
Conditions: at 0.1 µM
For each record, write down the corresponding inhibition.
One number for each entry, in %.

Use these answered entries as a reference point.
Exercise: Please report the measured inhibition for COc1cc2c(cc1Nc1nc(Nc3ccsc3C(N)=O)c3cc[nH]c3n1)N(C(=O)CN(C)C)CCC2
Solution: 12.2

Exercise: Please report the measured inhibition for NS(=O)(=O)c1ccc(-c2ccc3c(NC(=O)C4CC4)n[nH]c3c2)cc1
Solution: 1.52

# batch size: 3; output inhibition per entry
1. NS(=O)(=O)c1ccc(N/C=C2\C(=O)Nc3ccc4ncsc4c32)cc1
2. CCn1c(-c2nonc2N)nc2c(C#CC(C)(C)O)ncc(OC[C@@H]3CCCN3)c21
3. CCn1c(-c2nonc2N)nc2c(C#CCN)ncc(OCCCN)c21

Solution:
1. 16.3
2. 4.02
3. -2.14

# batch size: 2; output inhibition per entry
1. NC(=O)c1sc(-n2cnc3cc(C(F)(F)F)ccc32)cc1OCc1ccccc1Br
2. CCn1c(-c2nonc2N)nc2c(C#CC(C)(C)O)ncc(OCC3CCNCC3)c21

Solution:
1: 1.96; 2: -0.27
